target: UniProt P42338; test: PI3Kβ inhibitory activity (Ki value); assay type: biochemical; settings: read-out: PI3Kβ Ki value
Sequence (P42338 whole entry, species assumed): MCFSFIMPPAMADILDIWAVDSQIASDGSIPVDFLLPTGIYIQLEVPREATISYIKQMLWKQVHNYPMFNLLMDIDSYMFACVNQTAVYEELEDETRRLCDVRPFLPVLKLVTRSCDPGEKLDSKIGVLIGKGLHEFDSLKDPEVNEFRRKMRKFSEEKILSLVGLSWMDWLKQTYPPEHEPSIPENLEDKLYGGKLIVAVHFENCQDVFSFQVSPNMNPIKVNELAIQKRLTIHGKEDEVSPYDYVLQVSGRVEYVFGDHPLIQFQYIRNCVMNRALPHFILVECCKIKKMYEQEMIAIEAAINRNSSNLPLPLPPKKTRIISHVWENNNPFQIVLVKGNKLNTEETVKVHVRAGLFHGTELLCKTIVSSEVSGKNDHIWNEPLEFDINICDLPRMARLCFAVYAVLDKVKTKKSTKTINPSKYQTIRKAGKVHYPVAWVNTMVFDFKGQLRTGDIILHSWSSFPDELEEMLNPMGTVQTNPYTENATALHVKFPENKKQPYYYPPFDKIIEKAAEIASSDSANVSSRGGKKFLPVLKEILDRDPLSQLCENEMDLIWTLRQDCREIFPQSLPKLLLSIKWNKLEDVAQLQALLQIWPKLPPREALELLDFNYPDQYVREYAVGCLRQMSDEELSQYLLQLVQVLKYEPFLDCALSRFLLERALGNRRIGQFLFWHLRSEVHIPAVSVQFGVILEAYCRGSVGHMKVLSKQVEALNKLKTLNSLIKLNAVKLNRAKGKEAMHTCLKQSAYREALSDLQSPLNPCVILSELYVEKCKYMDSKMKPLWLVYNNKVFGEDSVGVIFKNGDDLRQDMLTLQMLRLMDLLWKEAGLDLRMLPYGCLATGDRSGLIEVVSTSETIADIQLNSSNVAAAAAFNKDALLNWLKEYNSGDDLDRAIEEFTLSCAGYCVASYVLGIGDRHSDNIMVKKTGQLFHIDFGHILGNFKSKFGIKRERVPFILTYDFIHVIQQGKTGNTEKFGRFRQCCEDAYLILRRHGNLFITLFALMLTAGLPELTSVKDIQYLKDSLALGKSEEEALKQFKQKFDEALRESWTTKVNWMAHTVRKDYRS
Sequence (P27986 whole entry partner, species assumed): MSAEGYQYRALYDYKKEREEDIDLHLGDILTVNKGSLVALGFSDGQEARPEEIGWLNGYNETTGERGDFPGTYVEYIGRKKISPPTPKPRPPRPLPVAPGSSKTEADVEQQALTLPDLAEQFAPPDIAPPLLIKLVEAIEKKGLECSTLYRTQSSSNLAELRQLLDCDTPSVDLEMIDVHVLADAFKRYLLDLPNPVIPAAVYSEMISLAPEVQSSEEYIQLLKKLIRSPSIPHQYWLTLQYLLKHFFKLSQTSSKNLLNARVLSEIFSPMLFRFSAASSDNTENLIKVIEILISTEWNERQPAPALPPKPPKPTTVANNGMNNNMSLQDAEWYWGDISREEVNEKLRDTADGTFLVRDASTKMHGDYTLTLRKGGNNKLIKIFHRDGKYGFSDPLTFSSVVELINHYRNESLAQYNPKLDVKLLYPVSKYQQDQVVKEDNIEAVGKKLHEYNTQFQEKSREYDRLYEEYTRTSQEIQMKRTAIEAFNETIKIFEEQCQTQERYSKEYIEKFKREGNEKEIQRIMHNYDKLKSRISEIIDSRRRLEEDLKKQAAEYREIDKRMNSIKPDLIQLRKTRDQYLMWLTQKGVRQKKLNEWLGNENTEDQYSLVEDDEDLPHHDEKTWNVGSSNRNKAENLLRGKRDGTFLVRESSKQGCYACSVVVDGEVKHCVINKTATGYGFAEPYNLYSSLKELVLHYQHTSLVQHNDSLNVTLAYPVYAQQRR
pKi: −log10 of the molar value.
ASSAY_ENDPOINT: pKi

{"columns": ["COMPOUND", "RESULT"],
 "data": [
  ["Cc1nc(NC(=O)Nc2ccccc2C(=O)NC(C)C)sc1-c1ccc(S(C)(=O)=O)c(F)c1 [Compound I-127]", 6.47]
]}

P. COc1cncc(-c2ccc3nc(NC(=O)Nc4ccccc4OCCC(C)C)cn3n2)c1 [Compound I-114]
Q. COc1cc(N2CCc3nc(NC(=O)Nc4ccccc4C(=O)NC(C)C)sc3C2)nc(OC)n1 [Compound I-12]
Input line: Compare P and Q and name the one whose reported pKi is smaller. Field: selected label. Fill in the label of the entry you choose.
Output line: P
(P: 6.18, Q: 6.47)

====

In this section we review reported inhibition at 1 µM values for a set of molecules.
Tested on: AKT phosphorylation
Assay: AKT phosphorylation inhibitory activity in MCP-1 stimulated THP-1 cells (sandwich ELISA)
Format: cell-based, Human
Conditions: Homo sapiens, compound at 1 μmol/L, MCP-1 stimulation, read-out: AKT phosphorylation inhibition ratio
Experimental: (1) The AKT phosphorylation inhibitory activity of a compound was evaluated according to the following procedure. […] (5) The amount of AKT phosphorylation in the cell solution was measured by sandwich ELISA method using anti-Phospho-Akt (Ser473) antibody and anti-AKT1 antibody. […] (9) 100 μL of stop solution was added to quench the color reaction, and then the absorbance at 450 nm was measured. […]
Enter your answer as a number in %; do not include the unit.

Entry COc1nc(Cl)cc(N2CCc3nc(NC(=O)Nc4ccccc4C(=O)NC4CCOC4)sc3C2)n1 (stereo not shown) , inhibition at 1 µM reported as 88

Entry COc1nc(Cl)cc(N2CCc3nc(NC(=O)Nc4cnccc4C(=O)NC(C)C)sc3C2)n1 , inhibition at 1 µM reported as 94.7

Entry COc1cc(N2CCc3nc(NC(=O)Nc4ccccc4C(=O)NC(C)CN(C)C)sc3C2)nc(OC)n1 (stereo not shown) , inhibition at 1 µM reported as 85

Entry COc1cc(N2CCc3nc(NC(=O)Nc4ccccc4C(=O)NC4CCCC4O)sc3C2)nc(OC)n1 (stereo not shown) , inhibition at 1 µM reported as 93

====

tested on: CYP1A2, CYP2C9, CYP2C19, CYP2D6 and CYP3A4 (one value for the five species); test: CYP inhibition test, five CYP species together (5CYPs_IC50; pooled human liver microsome); assay type: in vitro ADME; details: pooled human liver microsomes; one value for five species (CYP1A2, 2C9, 2C19, 2D6, 3A4); pooled human liver microsome 0.2 mg protein/mL, 15 minutes, 37° C., test drug 1-20 μmol/L; read-out: 5CYPs_IC50
ASSAY_ENDPOINT: IC50 at 15 min

Entry COc1cc(N2CCc3nc(NC(=O)Nc4ccccc4C(=O)O)sc3C2)nc(OC)n1.Cl.Cl , IC50 at 15 min reported as ≥ 10 µM

====

target: hERG channel (IKr) (Homo sapiens); construct: expressed in transfected cells; host or cells: HEK293; experiment: hERG test (whole-cell patch-clamp, IKr in HEK293 cells); assay type: cell-based; conditions: human, HEK293 cells expressing hERG channel, pH 7.4, inhibition of maximum tail current (IKr), compound 1 μM
Sequence (Q12809 whole entry): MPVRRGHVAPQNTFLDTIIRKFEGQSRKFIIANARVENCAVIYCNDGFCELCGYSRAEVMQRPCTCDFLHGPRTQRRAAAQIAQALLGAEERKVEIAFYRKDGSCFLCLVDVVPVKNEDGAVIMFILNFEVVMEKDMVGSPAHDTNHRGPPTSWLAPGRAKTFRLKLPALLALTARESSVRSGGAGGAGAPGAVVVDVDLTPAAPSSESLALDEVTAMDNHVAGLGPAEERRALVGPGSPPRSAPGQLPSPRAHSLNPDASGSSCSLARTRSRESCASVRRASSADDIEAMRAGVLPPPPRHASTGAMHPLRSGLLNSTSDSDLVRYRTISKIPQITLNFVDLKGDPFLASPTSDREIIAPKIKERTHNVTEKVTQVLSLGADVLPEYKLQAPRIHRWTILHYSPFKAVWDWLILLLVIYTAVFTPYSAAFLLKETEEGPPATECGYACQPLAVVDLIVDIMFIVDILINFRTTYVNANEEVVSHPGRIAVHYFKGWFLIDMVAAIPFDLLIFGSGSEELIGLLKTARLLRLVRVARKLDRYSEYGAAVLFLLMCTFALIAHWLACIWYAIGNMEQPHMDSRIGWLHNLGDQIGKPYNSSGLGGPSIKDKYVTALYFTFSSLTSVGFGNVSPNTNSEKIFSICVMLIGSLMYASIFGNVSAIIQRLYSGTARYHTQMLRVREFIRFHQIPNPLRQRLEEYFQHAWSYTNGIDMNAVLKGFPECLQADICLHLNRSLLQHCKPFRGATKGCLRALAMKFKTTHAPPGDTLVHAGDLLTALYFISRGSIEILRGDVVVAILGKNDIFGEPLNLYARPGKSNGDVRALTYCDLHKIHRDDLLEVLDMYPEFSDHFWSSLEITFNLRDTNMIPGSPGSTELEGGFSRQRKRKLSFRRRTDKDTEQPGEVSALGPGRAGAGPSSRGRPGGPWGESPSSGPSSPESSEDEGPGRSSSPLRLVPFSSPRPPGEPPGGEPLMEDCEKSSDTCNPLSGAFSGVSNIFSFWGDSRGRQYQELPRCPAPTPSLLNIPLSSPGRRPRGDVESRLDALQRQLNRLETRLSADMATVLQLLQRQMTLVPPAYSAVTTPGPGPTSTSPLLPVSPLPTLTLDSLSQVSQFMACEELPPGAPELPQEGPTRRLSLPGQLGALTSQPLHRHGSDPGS
ASSAY_ENDPOINT: inhibition at 10 min, 1 µM (%)
Enter your answer as a number in %; do not include the unit.

{"columns": ["MOLECULE", "READOUT_UNIT", "inhibition at 10 min, 1 µM"],
 "data": [
  ["CNS(=O)(=O)c1cncc(N2CCc3nc(NC(=O)Nc4ccccc4C(=O)NC(C)C)sc3C2)c1", "%", 5.5]
]}

Entry COc1cc(N2CCc3nc(NC(=O)Nc4cn(C)nc4C(=O)N[C@@H](C)CO)sc3C2)nc(OC)n1 , inhibition at 10 min, 1 µM reported as 2.9

Entry Cc1cc(N2CCc3nc(NC(=O)Nc4ccccc4C(=O)N[C@H](C)CO)sc3C2)nc(Cl)n1 , inhibition at 10 min, 1 µM reported as 2.7

Entry COc1cc(N2CCc3nc(NC(=O)Nc4ccccc4C(=O)NCCF)sc3C2)nc(OC)n1 , inhibition at 10 min, 1 µM reported as 5.7
